# EXPERIMENTAL PROTOCOL: label from the status in PepcDB records;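 also: failed if final PepcDB status was selected cloned or expressed and not failed if soluble or beyond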

| RESIDUES | protein production |
| --- | --- |
| MVKCLSAHNKAPHVSVITPSYNSIRFIGETIVSVQNQSYENWEMIIVDDASTDESVTKIKEIIEGDSRIRLVSLKENIGAAKARNIAIQEARGRYIAFLDSDDIWLPHKLKTQLLFMEEMSVAFSYASYSLIDENGNGLNREVNVPKSVDYHCLAGNTIIGCLTVIIDREKIPHIEMPSVQPEDTALWLKLLHEGHEAKGIQQVLAKYRIVANSVSRNKIKAAFRYWKLLRDQKCLNAVQIFYYFSKYAYHAYRKNKINVVGKTQL | failed |
| MSLAEKIKVLIVDDQVTSRLLLGDALQQLGFKQITAAGDGEQGMKIMAQNPHHLVISDFNMPKMDGLGLLQAVRANPATKKAAFIILTAQGDRALVQKAAALGANNVLAKPFTIEKMKAAIEAVFGALK | not failed |
| MTAEQLIEKYKNPAIIGLGVIVALIAAFVFYKYNQSENNTVAQEEMYKAVFYFEQDSLELALKGDEAKGIRGLQEVADEYSGTKAGKLAAFYTGIIYLKQAKFQESIDYLEKFSSNEGILQARSWAAMGDAYSELNDLENAIKYYKKAADHKGNEQITPTYLMKLGLAYELNNNWKDASDAYDKIITDYPKSQDVADAKKYKAKAQAALSASE | failed |
| MGHHHHHHSHMLPVELVRHDVKKTDETSQVELMLQVDPDLFWFNGHFTGQPLLPGVAQLDWVMHYATTVLAQGWTFLSIENIKFQQPILPGKTLRLVLIWHAGKQSLTFSYSILEGDTERTASSGKIKLTPIMEDNPCQ | not failed |
| MQAQDATQLLEGVPLPLVLIGPDERIRAANAPAQRLFGAASVARHYVMAMRQPALLDAIEGAIRLDRPGRARYIITGPSREVTYRATVTPVRIHGESCALCAFEDITEQEQMGAIRRDFVANVSHELRTPLTALLGFIETLQGAARDDPAARSRFLGIMAREAGRMNRLVQDLLSLSRVESEERVRPKTPVDVTAVIGQAIAALRPMAEAAGVEIQRQGEAGPILLPGDPDQLTQVFHNLIENAVKYGASGKLVTVGISRDAEGLARLGPAVRIEVVDRGEGIDAIHLPRLTERFYRVDNHRSREKGGTGLGLAIVKHIVNRHRGRFLIESELGQGSRFIVTLPLA | failed |
| MKQFLITGGTGMVGSQLVNKLKNRDVHITILTRSDKQSDDPKISYVNWSKDGWMSQVPDIDVVVNLAGATLNKRWTPSYKQLIMTSRIQSTQSLVDLFSQREHKPEVLFNASAMGYYPPSLYHTYTEKYQTHPFDFLSDVVYQWERFAKRFESFGTRVVLGRFSMILSNDGGALQTMKLPYKFFVGGKLGSGFQWYSWIHINDLVRAILFTIDNPNAKGPFNMAAPIAERQNLFGYTLARVMHRPHETWVPSFLMRLALGEMSTVVLDTQKVLPNKLDALGFTFNYSNLKIAFEDLIDALEHHHHHH | failed |
| MSVKSVLVFLSVSGSTMPMLILESDSIAEVKLRIQTCNGFRVRRQKLVFSGRELARNASRVKDYGVTGGSVLHLVLKLYDP | failed |

* * *

# EXPERIMENTAL PROTOCOL: label from the status in PepcDB records

| RESIDUES | protein production |
| --- | --- |
| VLESVRKEWLEIMDRELLEKARSLINANYISTTLSTVDRNYEVNIAVISVLEMIGDDTIICARFGADKTYANLKETGKGVFMVLLTDNDKSKDGIRVYVELSADLQEGEYFDRIKKRLDNTTYKNFPLKNCLVFKIVKILPVSLLRK | not failed |
| MKPRDTRVKPGSRVSLADWHTDGDAFVGKDKAASMARLDDDRVRLEELQELLYAEGKHRLLVVLQAMDTAGKDSTIRHVFRGVDPLGVRVANFGVPSTHELRHDYLWRVHPHVPASGEIAIFNRSHYEDVLVPRVNGAIGHAECERRYRQINDFERMLSETGTTIRKFYLHISKDEQKKRLEARRDTPKKRWKFQPGDLAVRAQWDDYRAAYDALLSATSTRHAPWHVVPADDKLARNLIVSALLIEALEGLDMRYPEPVAGVAGTPII | not failed |

* * *

# EXPERIMENTAL PROTOCOL: label from the status in PepcDB records

| RESIDUES | protein production |
| --- | --- |
| MGHHHHHHSHCDSDCLWVGLAGPQILPPCRSIVRTLHQHKLGRASWPSVQQGLQQSFLHTLDSYRILQKAAPFDRRATSLAWHPTHPSTVAVGSKGGDIMLWNFGIKDKPTFIKGIGAGGSITGLKFNPLNTNQFYASSMEGTTRLQDFKGNILRVFASSDTINIWFCSLDVSASSRMVVTGDNVGNVILLNMDGKELWNLRMHKKKVTHVALNPCCDWFLATASVDQTVKIWDLRQVRGKASFLYSLPHRHPVNAACFSPDGARLLTTDQKSEIRVYSASQWDCPLGLIPHPHRHFQHLTPIKAAWHPRYNLIVVGRYPDPNFKSCTPYELRTIDVFDGNSGKMMCQLYDPESSGISSLNEFNPMGDTLASAMGYHILIWSQEEARTRK | failed |
| MNEFAQSPRSCVLGCSGLGYSVRGTPLLSDVDLSIATGETLAVVGPNGSGKSTLLKLLAGIQKPGSGAVRLGEQALAAMSRRDVARLLAVVEQQAETSDAVTVLDAVELGRTPWLSALEPWSANDDAIVRQALQDVDMLHMQKRAWHTLSGGERQRVHIARALAQRPQILLLDEPTNHLDIQHQLTILGLVRALPVTTVIALHDLNQALDCDRVAVMEKGRLVALGTPVEVLTPKRLLSTFGVVAHWLTDPFDGAKILRLRSR | failed |
| MSAYIIETLIKILILVAVFSALGGFATYIERKVLAYFQRRLGPCYVGPFGLLQVAADGIKLFTKEDIIPQGANKFIFTLAPIIAMVSAFVSMAPIPFFPNFTLFGYEIKPLISDINIGFLFFLAVGSAGIYAPILAGLASNNKYSLIGSARATIQLLSFEVVSTLTILAPLMVVGSLSLVEINHYQSGGFLDWLVFKQPLAFVLFLIASYAELNRTPFDLLEHEAEIVAGYCTEYSGLKWGMFFLAEYAHLFAFSFVISIVFFGGFNAWGFIPGGIAILIKAGFFVFLSMWVRATYPHVRPDQLMDMCWKIMLPLALLNIVLTGIIILI | failed |
| MKLSSEKLPKNPFSLSQYAAKQQKFFQWKKEKPDYYLHANLVDTALQFLKERIRRGDAMAYFLRGQLYFEEGWYEEALAQFEEIQEKDHQAIYQLGVMYYDGLGTIANAEKGVNYMRKILDSSCPQTMHLKFAAAYNLGRAYFEGKGVKRSDEEAERLWLLAADNGNPKASVKAQSILGLFYSMKEPKELEKAFFWHSEACGNGSLESQGALGLMYFYGQGIRQDTDAALHCLREAAERGNVYAQGTLVEYYYKMKFFTKCVSFSKRIADYDEVHDIPMIAHVTDCLPEFIIKGMAMAAFYHGRCLQLGLGIMKDEESAKHYYSKACRLNPTLADELHSLLIHQRI | failed |

* * *

# EXPERIMENTAL PROTOCOL: label from the status in PepcDB records
OBSERVABLE: protein production

| RESIDUES | REPORTED |
| --- | --- |
| MTTEVKQSPRERLLEAAAALTYRDGVGIGVEALCKAAGVSKRSMYQLFESKDELLAASLKERSAAFVAKALPPADDGRSPRERILYVFERVESQAGAPDFQGCRYLAVQIELKDQAHPASRVAYQIKADLMAFFRSEAERGGASDPDLLARQLILVFDGASARAGIGADNLTGLIVPTLTTLLDAADMH | not failed |
| MGHHHHHHSHMGWDLTVKMLAGNEFQVSLSSSMSVSELKAQITQKIGVHAFQQRLAVHPSGVALQDRVPLASQGLGPGSTVLLVVDKSDEPLS | failed |
| MSPSPLISHRAASADLAGMVRQARQRILLQGNVPGFDVARQIELLHGLAESELGRFLLLYRGLNAEWTHRLVTHQPGSGALAPLERVFYERLPAVLATRERHGHFRRALQRHLRPGCVVASVPCGWMSELLALDYSACPGVQLVGIDYDPEALDGATRLAAGHALAGQITLHRQDAWKLDTREGYDLLTSNGLNIYEPDDARVTELYRRFWQALKPGGALVTSFLTPPPALSPDSPWDMQAIDPHDLQLQQLVFTRLIQPRWNALRTHAQTRAQLEEAGFTDLRFEDDRARLFPTVIARKPA | not failed |
| MAHATPPSALEQGGPIRVEHDRQRRQFSVRLNGCHDRAVLLYEYVGKRIVDLQHTEVPDAYRGRGIAKHLAKAALDFVVEEDLKAHLTCWYIQKYVKENPLPQYLERLQP | failed |
